These entries and their values trace back to patent US5773421A.

System: Candida albicans CCH 442
Test: MIC by agar dilution method
Type: cell-based
Settings: CCH442; Table 6c, 3rd value column (head printed II); III Candida albicans CCH 442; agar dilution; read-out: MIC II
Examples of compounds with documented log10 MIC follow.
READOUT NAME: log10 MIC (log10 of the value in mg/L)

1. CCCCC/C=C/C=C/[C@@H](O)C/C=C/C=C/C(=O)O[C@@H]1[C@@H](O)[C@H](c2c(O)cc(O)cc2CO)O[C@H](CO)[C@H]1O[C@@H]1O[C@H](COC(=O)c2ccc3c(c2)-c2ccccc2-3)[C@H](O)[C@H](O)[C@H]1O[C@@H]1O[C@H](CO)[C@H](O)[C@H](O)[C@H]1O [Example 28] ... -0.41
2. CCCCC/C=C/C=C/[C@@H](O)C/C=C/C=C/C(=O)O[C@@H]1[C@@H](O)[C@H](c2c(O)cc(O)cc2CO)O[C@H](CO)[C@H]1O[C@@H]1O[C@H](COC(=O)/C=C/c2ccccc2)[C@H](O)[C@H](O)[C@H]1O[C@@H]1O[C@H](CO)[C@H](O)[C@H](O)[C@H]1O [Example 16] ... 1.10
3. CCCCC/C=C/C=C/[C@@H](O)C/C=C/C=C/C(=O)O[C@@H]1[C@@H](O)[C@H](c2c(O)cc(O)cc2CO)O[C@H](CO)[C@H]1O[C@@H]1O[C@H](COC(=O)c2ccc(-c3ccc4ccccc4c3)cc2)[C@H](O)[C@H](O)[C@H]1O[C@@H]1O[C@H](CO)[C@H](O)[C@H](O)[C@H]1O [Example 29] ... 0.19
4. CCCCC/C=C/C=C/[C@@H](O)C/C=C/C=C/C(=O)O[C@@H]1[C@@H](O)[C@H](c2c(O)cc(O)cc2CO)O[C@H](CO)[C@H]1O[C@@H]1O[C@H](COC(=O)c2ccc(CCCC)cc2)[C@H](O)[C@H](O)[C@H]1O[C@@H]1O[C@H](CO)[C@H](O)[C@H](O)[C@H]1O [Example 15] ... 0.49
5. CCCCCC=CC=CC(=O)OCC1OC(OC2C(CO)OC(c3c(O)cc(O)cc3CO)C(O)C2OC(=O)C=CC=CCC(O)C=CC=CCCCCC)C(OC2OC(CO)C(O)C(O)C2O)C(O)C1O (stereo not drawn) [Example 4, fusacandin A] ... -0.11
6. CCCCC/C=C/C=C/[C@@H](O)C/C=C/C=C/C(=O)O[C@@H]1[C@@H](O)[C@H](c2c(O)cc(O)cc2CO)O[C@H](CO)[C@H]1O[C@@H]1O[C@H](COC(=O)c2ccc(-c3ccc(OC(C)C)cc3)cc2)[C@H](O)[C@H](O)[C@H]1O[C@@H]1O[C@H](CO)[C@H](O)[C@H](O)[C@H]1O [Example 43] ... -0.11

----------
Examples of compounds with documented MIC follow.
System: Candida albicans ATCC 62376
Assay: MIC by agar dilution method
Assay type: cell-based
Settings: ATCC62376; Table 6c; V Candida albicans ATCC 62376; agar dilution; read-out: MIC V
READOUT NAME: MIC (µg/mL)

1) CCCCC/C=C/C=C/[C@@H](O)C/C=C/C=C/C(=O)O[C@@H]1[C@@H](O)[C@H](c2c(O)cc(O)cc2CO)O[C@H](CO)[C@H]1O[C@@H]1O[C@H](COC(=O)c2ccc(-c3ccc(O)cc3)cc2)[C@H](O)[C@H](O)[C@H]1O[C@@H]1O[C@H](CO)[C@H](O)[C@H](O)[C@H]1O [Example 41] ... 12.5
2) CCCCC/C=C/C=C/[C@@H](O)C/C=C/C=C/C(=O)O[C@@H]1[C@@H](O)[C@H](c2c(O)cc(O)cc2CO)O[C@H](CO)[C@H]1O[C@@H]1O[C@H](COC(=O)c2ccc(-c3ccc(-c4ccccc4)cc3)cc2)[C@H](O)[C@H](O)[C@H]1O[C@@H]1O[C@H](CO)[C@H](O)[C@H](O)[C@H]1O [Example 33] ... 0.78
3) CCCCC/C=C/C=C/[C@@H](O)C/C=C/C=C/C(=O)O[C@@H]1[C@@H](O)[C@H](c2c(O)cc(O)cc2CO)O[C@H](CO)[C@H]1O[C@@H]1O[C@H](COC(=O)c2cccc(-c3ccc(OC)cc3)c2)[C@H](O)[C@H](O)[C@H]1O[C@@H]1O[C@H](CO)[C@H](O)[C@H](O)[C@H]1O [Example 39] ... 3.12
